Values from ChEMBL document CHEMBL4364252

- EXPERIMENTAL_TARGET: Androgen receptor (Homo sapiens)
- Sequence (whole entry): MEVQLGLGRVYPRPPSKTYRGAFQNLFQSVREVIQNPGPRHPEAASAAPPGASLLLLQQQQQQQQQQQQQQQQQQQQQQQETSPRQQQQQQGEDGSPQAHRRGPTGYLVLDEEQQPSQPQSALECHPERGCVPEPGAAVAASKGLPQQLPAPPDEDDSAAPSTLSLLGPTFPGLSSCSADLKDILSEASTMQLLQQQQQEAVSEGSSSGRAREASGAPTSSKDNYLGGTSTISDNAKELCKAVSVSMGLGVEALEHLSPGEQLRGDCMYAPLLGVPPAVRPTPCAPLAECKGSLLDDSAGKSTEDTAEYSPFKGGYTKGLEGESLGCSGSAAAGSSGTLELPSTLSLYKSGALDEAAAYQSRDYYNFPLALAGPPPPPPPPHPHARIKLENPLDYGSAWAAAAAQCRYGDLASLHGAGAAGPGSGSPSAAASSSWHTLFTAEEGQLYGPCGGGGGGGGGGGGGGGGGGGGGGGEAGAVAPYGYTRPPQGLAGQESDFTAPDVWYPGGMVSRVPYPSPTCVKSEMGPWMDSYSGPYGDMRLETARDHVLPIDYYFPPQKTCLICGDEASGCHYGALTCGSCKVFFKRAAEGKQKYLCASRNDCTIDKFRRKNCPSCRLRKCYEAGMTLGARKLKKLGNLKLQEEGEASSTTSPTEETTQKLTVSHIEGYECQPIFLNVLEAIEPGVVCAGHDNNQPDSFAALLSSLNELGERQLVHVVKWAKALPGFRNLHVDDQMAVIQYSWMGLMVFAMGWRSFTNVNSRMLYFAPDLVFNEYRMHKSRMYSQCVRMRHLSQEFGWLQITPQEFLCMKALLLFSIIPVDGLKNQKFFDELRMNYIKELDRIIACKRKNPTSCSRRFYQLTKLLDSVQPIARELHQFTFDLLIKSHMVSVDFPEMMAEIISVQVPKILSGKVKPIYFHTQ
- EXPERIMENTAL_SETUP: at 10 µM
- Description: Inhibition of AR transcriptional activity in AR-positive human 22Rv1 cells harboring ARE14 construct assessed as suppression of NKX3.1 expression at 10 uM after 24 hrs by immunoblot analysis
The source made the active and inactive calls. No cut-off for these calls is given here.
Answer with one of the outcomes yes (1) for active, no (0) for inactive

COC(=O)c1cnn2c1C[C@]1(C(C)=O)[C@@H](C[C@H]3[C@@H]4CCC5=CC(=O)CC[C@]5(C)[C@H]4CC[C@@]31C)C2 | yes (1)
COC(=O)c1nn2c(c1C(=O)OC)C[C@]1(C(C)=O)[C@@H](C[C@H]3[C@@H]4CC=C5C[C@@H](OC(C)=O)CC[C@]5(C)[C@H]4CC[C@@]31C)[C@H]2Cc1ccccc1 | no (0)
C[C@@H](O)[C@@]12Cc3c(CO)c(CO)nn3C[C@@H]1C[C@H]1[C@@H]3CC=C4C[C@@H](O)CC[C@]4(C)[C@H]3CC[C@@]12C | yes (1)

What is the recorded call for this compound in the test? COC(=O)c1cnn2c1C[C@]1(C(C)=O)[C@@H](C[C@H]3[C@@H]4CC=C5C[C@@H](O)CC[C@]5(C)[C@H]4CC[C@@]31C)C2
yes (1)

Try the compound COC(=O)c1nn2c(c1C(=O)OC)C[C@]1(C(C)=O)[C@@H](C[C@H]3[C@@H]4CC=C5C[C@@H](O)CC[C@]5(C)[C@H]4CC[C@@]31C)[C@H]2Cc1ccccc1
no (0)

Try the compound COC(=O)c1nn2c(c1C(=O)OC)C[C@]1(C(C)=O)[C@@H](C[C@H]3[C@@H]4CCC5=CC(=O)CC[C@]5(C)[C@H]4CC[C@@]31C)C2
yes (1)

Try the compound COC(=O)c1nn2c(c1C(=O)OC)C[C@]1(C(C)=O)[C@@H](C[C@H]3[C@@H]4CC=C5C[C@@H](O)CC[C@]5(C)[C@H]4CC[C@@]31C)C2
no (0)

Try the compound CC(=O)[C@@]12Cc3c(C(=O)O)cnn3C[C@@H]1C[C@H]1[C@@H]3CCC4=CC(=O)CC[C@]4(C)[C@H]3CC[C@@]12C
no (0)
